system: SARS2; type: cell-based, SARS-CoV-2; conditions: SARS2, 25 μM; 100=DMSO control
// NB: equality with 40 counts as not satisfied; only Screening data (Relative infection to DMSO controls) Average 25 μM strictly below is satisfied

compound=COc1ccc(-c2[nH]ncc2C(=O)NC2CCCCCC2)cc1OC assigned_class="not satisfied"
compound=Cc1cc(CN(CCN(C)C)Cc2ccsc2)oc1C assigned_class="not satisfied"
compound=CN(C)CCN(Cc1cocn1)Cc1cccs1 assigned_class="not satisfied"
compound="COc1ccc(CNCCc2ccccc2F)c(OCC(O)CN2CCN(C)CC2)c1 (stereo not shown) [SILCS45]" assigned_class=satisfied
compound="CN1CCN(CC(O)COc2cccc(N3CCCCC3)c2CNCCc2ccccc2F)CC1 (stereo not shown)" assigned_class=satisfied
compound=CN(C)CCN(Cc1ccsc1)Cc1cccc(-c2ccsc2)c1 assigned_class=satisfied
compound="CC1=C(C(=O)NC2CCCCCC2)C(c2cccs2)NC(=O)N1 (stereo not shown)" assigned_class="not satisfied"
compound=CCN(CC)CCN(Cc1ccccc1)Cc1ccccn1 assigned_class="not satisfied"
compound=CN(C)CCN(Cc1ccccc1)Cc1cc(C#CCO)cs1 assigned_class="not satisfied"
compound=Cc1ccc(CN(CCN(C)C)Cc2ccc(CO)o2)s1 assigned_class="not satisfied"
compound=CCN(CC)CCN(Cc1ccccc1)Cc1ccc(C)o1 assigned_class="not satisfied"
compound=Cc1cc(CN(CCN(C)C)Cc2ccco2)sc1Br assigned_class=satisfied
compound="OC(COc1c(CNCCc2ccccc2F)cccc1N1CCNCC1)CN1CCCC1 (stereo not shown)" assigned_class=satisfied
compound=Cc1ccc(CN(CCN(C)C)Cc2cc(C#CCO)cs2)s1 assigned_class="not satisfied"
compound="COc1ccc(CNCCc2ccccc2F)c(OCC(O)CN2CCN(C)CC2)c1 (stereo not shown) [SILCS46]" assigned_class=satisfied
compound="CC1=C(C(=O)NCC2CCCCC2)C(c2cccs2)NC(=O)N1 (stereo not shown)" assigned_class="not satisfied"
compound="CC1=C(C(=O)NCc2ccccc2)C(c2ccc(C)o2)NC(=O)N1 (stereo not shown)" assigned_class="not satisfied"
compound=COC(=O)c1csc(CN(CCN(C)C)Cc2ccsc2)c1 assigned_class="not satisfied"
compound="COc1ccc(CNCCc2ccccc2F)c(OCC(O)CN2CCN(C)CC2)c1 (racemic) [SILCS41]" assigned_class=satisfied
compound=COC(=O)c1csc(CN(CCN(C)C)Cc2ccccc2)c1 assigned_class="not satisfied"
compound=CN(C)CCN(Cc1ccsc1)Cc1ccc(CO)o1 assigned_class="not satisfied"
compound=Cc1csc(CN(CCN(C)C)Cc2ccco2)c1 assigned_class="not satisfied"
compound=COc1ccc(-c2[nH]ncc2C(=O)NCC2CCCCC2)cc1OC assigned_class="not satisfied"
compound="CC1=C(C(=O)NCc2ccccc2)C(c2scc3c2OCCO3)NC(=O)N1 (stereo not shown)" assigned_class="not satisfied"
compound=CCN(CC)CCN(Cc1ccncc1)C(=O)c1cccs1 assigned_class="not satisfied"

----------
tested on: cells (nuclei count); settings: 10 uM; average of Exp 1-3 (SMW475, SMW477, SMW478); n 9
Listed here: items and their measured Toxicity Data: Average, Mean.
ASSAY READOUT: Toxicity Data: Average, Mean (%)

molecule=Cc1cc(CN(CCN(C)C)Cc2ccco2)sc1Br target_system="cells (nuclei count)" reading=107.75
molecule=CN(C)CCN(Cc1ccsc1)Cc1cccc(-c2ccsc2)c1 target_system="cells (nuclei count)" reading=138.88
molecule=Cc1csc(CN(CCN(C)C)Cc2ccco2)c1 target_system="cells (nuclei count)" reading=88.87
molecule=Cc1cc(CN(CCN(C)C)Cc2ccncc2)sc1Br target_system="cells (nuclei count)" reading=108.29
molecule="COc1ccc(CNCCc2ccccc2F)c(OCC(O)CN2CCN(C)CC2)c1 (racemic) [UMB18G]" target_system="cells (nuclei count)" reading=148.72

----------
system: cells (nuclei count); details: 50 uM; average of Exp 1-3 (SMW475, SMW477, SMW478); n 9
ASSAY READOUT: Toxicity Data: Average, Mean (%)

compound="COc1ccc(CNCCc2ccccc2F)c(OCC(O)CN2CCN(C)CC2)c1 (racemic) [UMB18G]" assay_readout="Toxicity Data: Average, Mean" unit_spec=% reading=58.67
compound=Cc1cc(CN(CCN(C)C)Cc2ccco2)sc1Br assay_readout="Toxicity Data: Average, Mean" unit_spec=% reading=65.19
compound=Cc1csc(CN(CCN(C)C)Cc2ccco2)c1 assay_readout="Toxicity Data: Average, Mean" unit_spec=% reading=53.52
compound=Cc1cc(CN(CCN(C)C)Cc2ccncc2)sc1Br assay_readout="Toxicity Data: Average, Mean" unit_spec=% reading=16.80
compound=CN(C)CCN(Cc1ccsc1)Cc1cccc(-c2ccsc2)c1 assay_readout="Toxicity Data: Average, Mean" unit_spec=% reading=7.37

----------
The entries below are paired with their reported Relative cell count to DMSO controls, Average 25 μM.
test system: cells (nuclei count); conditions: 25 μM; toxicity data; 100=DMSO control
ASSAY READOUT: Relative cell count to DMSO controls, Average 25 μM

molecule="COC(=O)c1csc(CN(CCN(C)C)Cc2cccs2)c1 [SILCS29]" reading=101.15
molecule="COc1ccc(-c2[nH]ncc2C(=O)NCC2CCC2)cc1OC [SILCS54]" reading=99.71
molecule="COc1ccc(CNCCc2ccccc2F)c(OCC(O)CN2CCN(C)CC2)c1 (racemic) [SILCS41]" reading=118.34
molecule="COCC1=C(C(=O)NCC2CCC2)C(c2cccs2)NC(=O)N1 (stereo not shown) [SILCS56]" reading=104.41
molecule="CCCCCCCCNC(=O)C1=C(C)NC(=O)NC1c1ccc(OC)c(OC)c1 (stereo not shown) [SILCS65]" reading=89.35
molecule="CN1CCN(CC(O)COc2cccc(N3CCCCC3)c2CNCCc2ccccc2F)CC1 (stereo not shown) [SILCS10]" reading=50.46
molecule="CC1=C(C(=O)NCC2CCCCC2)C(c2cccs2)NC(=O)N1 (stereo not shown) [SILCS70]" reading=93.9
molecule="CCN(CC)CCN(Cc1cc(C)c(Br)s1)Cc1cc(C)c(Br)s1 [SILCS39]" reading=128.15
molecule="CN(C)CCN(Cc1cocn1)Cc1cccs1 [SILCS35]" reading=93.31
molecule="CCN(CC)CCN(Cc1cccs1)C(=O)c1cccs1 [SILCS34]" reading=89.42

----------
test system: cells (nuclei count); details: 25 uM; average of Exp 1-3 (SMW475, SMW477, SMW478); n 9
ASSAY READOUT: Toxicity Data: Average, Mean

molecule=Cc1cc(CN(CCN(C)C)Cc2ccco2)sc1Br reading=115.74%
molecule=Cc1cc(CN(CCN(C)C)Cc2ccncc2)sc1Br reading=139.75%
molecule=CN(C)CCN(Cc1ccsc1)Cc1cccc(-c2ccsc2)c1 reading=78.06%
molecule=Cc1csc(CN(CCN(C)C)Cc2ccco2)c1 reading=75.47%
molecule="COc1ccc(CNCCc2ccccc2F)c(OCC(O)CN2CCN(C)CC2)c1 (racemic) [UMB18G]" reading=110.49%

----------
test system: cells (nuclei count); settings: 25 μM; toxicity data; 100=DMSO control
ASSAY READOUT: Relative cell count to DMSO controls, Average 25 μM

molecule="CC1=C(C(=O)NC2CCCCCC2)C(c2cccs2)NC(=O)N1 (stereo not shown)" reading=109.52
molecule=COc1ccc(-c2[nH]ncc2C(=O)NC2CCCCCC2)cc1OC reading=96.61
molecule=CN(C)CCN(Cc1ccsc1)Cc1ccco1 reading=95.34
molecule=COC(=O)c1csc(CN(CCN(C)C)Cc2ccsc2)c1 reading=102.57

----------
system: Influenza virus; assay: organism not typed; format: cell-based, influenza A virus; conditions: 10 μM; upper part of table (FIG. 5 data), plaque assay
compounds and their reported Influenza virus titer, 10 μM
ASSAY READOUT: Influenza virus titer, 10 μM (PFU/virus/ml)

compound="COc1ccc(CNCCc2ccccc2)c(OCC(O)CN2CCN(C)CC2)c1 (stereo not shown)" assay_readout="Influenza virus titer, 10 μM" reading=10000
compound="COc1ccc(CNCCCSC)c(OCC(O)CN2CCN(C)CC2)c1 (stereo not shown)" assay_readout="Influenza virus titer, 10 μM" reading=21000
compound="COc1ccc(CNCCCSC)c(OCC(O)CN2CCCCCCC2)c1 (stereo not shown)" assay_readout="Influenza virus titer, 10 μM" reading=4400
compound="COc1ccc(CNCC2CCCCC2)c(OCC(O)CN2CCN(C)CC2)c1 (stereo not shown)" assay_readout="Influenza virus titer, 10 μM" reading=60000

----------
// reported Relative cell count to DMSO controls, Average 5 μM per item
system: cells (nuclei count); conditions: 5 μM; toxicity data; 100=DMSO control
ASSAY READOUT: Relative cell count to DMSO controls, Average 5 μM

molecule=Cc1cc(CN(CCN(C)C)Cc2ccco2)sc1Br reading=104
molecule=CCN(CC)CCN(Cc1ccc(C)o1)Cc1cccs1 reading=124
molecule=COc1ccc(-c2[nH]ncc2C(=O)NC2CCCCCC2)cc1OC reading=110.17
molecule=COc1ccc(-c2[nH]ncc2C(=O)NCC2CCCCC2)cc1OC reading=97.63
molecule="COc1ccc(C2NC(=O)NC(C)=C2C(=O)NCC2CCC2)cc1OC (centres unmarked)" reading=119.2
molecule=Cc1cc(CN(CCN(C)C)Cc2ccsc2)oc1C reading=120.66
molecule=COC(=O)c1csc(CN(CCN(C)C)Cc2ccsc2)c1 reading=114.77
molecule=CN(C)CCN(Cc1cocn1)Cc1cccs1 reading=100.64
molecule="COCC1=C(C(=O)NCC2CCC2)C(c2cccs2)NC(=O)N1 (centres unmarked)" reading=119.22
molecule=CCN(CC)CCN(Cc1ccccn1)C(=O)c1cccs1 reading=110.16
molecule=CN(C)CCN(Cc1ccsc1)Cc1ccco1 reading=102.7
molecule=CCN(CC)CCN(Cc1ccccn1)Cc1ccc(C)o1 reading=84.91
molecule="CC1=C(C(=O)NCC2CCC2)C(c2cccs2)NC(=O)N1 (centres unmarked)" reading=123.92
molecule=COc1ccc(-c2[nH]ncc2C(=O)NCC2CCC2)cc1OC reading=101.65
molecule="COc1ccc(CNCCc2ccccc2F)c(OCC(O)CN2CCOCC2)c1 (centres unmarked)" reading=113.44
molecule=Cc1ccc(CN(CCN(C)C)Cc2ccc(C)s2)o1 reading=103.66
molecule="COc1ccc(CNCCc2ccccc2F)c(OCC(O)CN2CCN(C)CC2)c1 (centres unmarked) [SILCS45]" reading=123.47
molecule=CCN(CC)CCN(Cc1ccccc1)Cc1ccccn1 reading=94.18
molecule="COc1ccc(CNCCc2ccccc2F)c(OCC(O)CN2CCN(C)CC2)c1 (racemic) [UMB18G]" reading=134.20
molecule=CN(C)CCCN(Cc1cccs1)C(=O)c1cccs1 reading=96.33
molecule=COC(=O)c1csc(CN(CCN(C)C)Cc2ccccc2)c1 reading=110.62
molecule=Cc1csc(CN(CCN(C)C)Cc2ccco2)c1 reading=89.17
molecule=CCN(CC)CCN(Cc1cc(C)c(Br)s1)Cc1cc(C)c(Br)s1 reading=114.94
molecule="CC1=C(C(=O)NCC2CCCCC2)C(c2cccs2)NC(=O)N1 (centres unmarked)" reading=111.32
molecule="CCCCCCCCNC(=O)C1=C(C)NC(=O)NC1c1ccc(OC)c(OC)c1 (centres unmarked)" reading=115.73
molecule="COc1ccc(CNCCc2ccccc2F)c(OCC(O)CN2CCN(C)CC2)c1 (racemic) [SILCS41]" reading=139.55
